Reference for the values: PubChem BioAssay (NCI)

- Test system: CAKI-1 renal
- procedure summary: NCI tumour cell line growth inhibition, 48 h
Label scheme for TGI: lower than 10 µM is F, 10 µM and above is T.

Would you say `CCCCCCCCCCCCC/C=C1\C[C@H](O)COC1=O` shows TGI at minimum 10 µM?
T

Is it the case that C=CC[N+]1(CCO)CCN=C1CCCCCCCCCCCCC (stereo unspecified) has TGI reaching or exceeding 10 µM?
F

Can `COc1cccc2c1nc1cccc(OC)c1[n+]2[O-]` be said to have TGI at or above 10 µM?
T

Dear colleague, could you confirm whether `Cc1c2cnccc2c(C)c2c1c1cc(C(=O)O)ccc1n2C` has TGI at or above 10 µM?
F

Hi team, for `O=c1oc2ccccc2cc1-c1csc(Nc2cc(Cl)cc(Cl)c2)n1` , is the recorded TGI at or above 10 µM?
T

Dear colleague, could you confirm whether `FC(F)(F)c1[nH]ncc1-c1nc2c(N3CCCCC3)cc3[nH]ncc3c2c2c1CCCC2` has TGI at or above 10 µM?
F

====

- System: SK-MEL-28 melanoma
- procedure summary: NCI tumour cell line growth inhibition, 48 h; in the data active means GI50 below about 0.43 µM; inactive means the rest
Your reply should match one of these outcome classes. t for active, f for inactive

Tell me the recorded outcome of this test for `COc1ccc(N2CCN(CN3CCN(c4ccc(OC)cc4)C3)C2)cc1` .
f

Called result for `COc1cc(CNc2nc3cc(N)cc(N)c3nc2-c2ccccc2)cc(OC)c1OC`
f

GET /call?item= C=CCC(N[C@@H](CO)c1ccccc1)c1ccccn1 (stereo partly specified) returns the recorded outcome of this test.
f

Any idea what this test logged for `N.N.N.N.N.N#N.[Cl-].[Os+7]` ?
f

Called result for `O=c1c2[nH]c3ccccc3c2nc2n1CCS2`
f

Dear colleague, could you share the recorded outcome for `O=C(Nc1ccc(Cl)cc1F)c1cc(F)ccc1O` when you have a moment?
f

For `C[C@H](C(=O)N[C@@H](Cc1ccc(-c2ccccc2)cc1)C(=O)NC1CC(C)(C)N(C)C(C)(C)C1)c1ccc(-c2ccccc2)c(F)c1` , what call appears in the results of this test?
f

Which result was noted for this compound in the test: `Cc1c2cnccc2c(C)c2c1c1cc(C(=O)O)ccc1n2C`
f

What was the test verdict on `C=C(C)[C@@H]1CC[C@]2(C(=O)Nc3ccccn3)CC[C@]3(C)[C@H](CC[C@@H]4[C@@]5(C)CCCNC(C)(C)[C@@H]5CC[C@]43C)[C@@H]12` ?
f

GET /call?item= `Cc1cc(C(=O)N[C@@H](CCC(=O)O)C(=O)O)sc1CC[C@@H]1CNc2nc(N)[nH]c(=O)c2C1` returns the recorded outcome of this test.
t

Dear all, I need the recorded test outcome for `CN(C)CCN1C(=O)c2cccc3c(N)ccc(c23)C1=O` , thank you.
f

Dear all, I need the recorded test outcome for `O=C1c2ccc3c4c(ccc(c24)C(=O)N1CCCNCc1ccccc1)C(=O)N(CCCNCc1ccccc1)C3=O` , thank you.
t

What outcome does the record of this test show for `COc1ccc2c(O)c(/C=C3\N=Nc4ncccc43)oc2c1C[C@H]1CCNC[C@H]1F` ?
f

Please state the recorded outcome for this compound: `COc1cc[c]([Sb]([Br])([CH]=C(C)C)([CH]=C(C)C)[CH]=C(C)C)cc1`
f

Outcome logged for `COc1cc(OC)cc(-c2ccc(-c3ccc(C(=N)N)s3)s2)c1` in this assay:
f

Each compound tested received a call. Report the one for `CCc1nc(-n2c(CC)nc3ccccc3c2=O)nc(N)c1-c1ccc(Cl)cc1` .
f
